Biological target: Luciferin 4-monooxygenase (Photinus pyralis) (UniProt P08659)
Sequence (P08659 whole entry, looked up): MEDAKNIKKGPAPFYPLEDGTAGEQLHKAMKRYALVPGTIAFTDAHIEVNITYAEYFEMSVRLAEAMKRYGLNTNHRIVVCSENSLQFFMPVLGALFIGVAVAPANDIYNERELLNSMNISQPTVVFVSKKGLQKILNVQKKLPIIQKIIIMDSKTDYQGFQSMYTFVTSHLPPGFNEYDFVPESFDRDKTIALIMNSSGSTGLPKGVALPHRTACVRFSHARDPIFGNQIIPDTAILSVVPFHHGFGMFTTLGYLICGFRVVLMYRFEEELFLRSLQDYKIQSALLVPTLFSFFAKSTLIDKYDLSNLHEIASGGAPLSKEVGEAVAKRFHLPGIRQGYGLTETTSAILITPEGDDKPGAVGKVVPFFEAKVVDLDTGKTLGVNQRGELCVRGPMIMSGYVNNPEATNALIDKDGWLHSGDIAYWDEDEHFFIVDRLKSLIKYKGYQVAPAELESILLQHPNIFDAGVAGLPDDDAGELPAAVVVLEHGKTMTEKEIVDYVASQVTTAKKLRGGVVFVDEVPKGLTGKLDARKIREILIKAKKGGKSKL
Experiment: qHTS assay to identify small molecule inhibitors of firefly luciferase (AID 1224835); further: nearly all actives have a fitted effect of over 25% in size
Conditions: purified P. pyralis luciferase, luminescence inhibition; series mostly up to 52.9 µM
Results filed as inconclusive are left out. Activity calls are given as the source filed them. The call rests on the fitted dose curve; in most records, active means well fitted inhibition curve with a large enough effect in the repeat runs; inconclusive means weak or mixed curves; inactive means flat fitted curve, though single readings scatter.
Respond with a class label; see true (1) (active), false (0) (inactive)

INSERT INTO measurements (compound, assigned_class) VALUES
  ('CCCCCCCCOc1ccc(C(=O)O)cc1', 'true (1)');

Asked: Kindly provide the recorded test outcome for the following compound: Brc1cc(Br)c(Oc2cc(Br)c(Br)cc2Br)cc1Br
Given back: false (0)

Asked: What about OCCOCC#CCOCCO ?
Given back: false (0)

Asked: What about C[C@@H](CN(C)C)CN1c2ccccc2Sc2ccccc21 ?
Given back: false (0)

Asked: What about C[C@@]12CCC[C@H]1[C@@H]1CC[C@H]3C[C@@H](O)CC[C@]3(C)[C@H]1CC2 ?
Given back: false (0)

Asked: What about O=C(CCc1ccc(O)cc1)c1c(O)cc(O)cc1O ?
Given back: true (1)

Asked: What about Cc1ccc(OC(=O)c2ccccc2O)cc1 ?
Given back: true (1)

Asked: What about Cc1ccc(CO)cc1 ?
Given back: false (0)

Asked: What about Cc1ccccc1S ?
Given back: false (0)

Asked: What about CN1CCCC(n2nc(Cc3ccc(Cl)cc3)c3ccccc3c2=O)CC1 (stereo unspecified) ?
Given back: false (0)

Asked: What about O=C1C(=O)c2ccccc2C(O)=C1C1CCC(c2ccc(Cl)cc2)CC1 (stereo unspecified) ?
Given back: false (0)

Asked: What about CCCCOc1ccc(OCCCN2CCOCC2)cc1 ?
Given back: false (0)

Asked: What about CCOC(C)=O ?
Given back: false (0)

Asked: What about Cc1cccc(O)c1N ?
Given back: false (0)

Asked: What about Cc1ccc(C(C)(C)O)cc1 ?
Given back: false (0)

Asked: What about CC[N+](CC)(CCNC(=O)C(=O)NCC[N+](CC)(CC)Cc1ccccc1Cl)Cc1ccccc1Cl ?
Given back: false (0)

Asked: What about COC(=O)CCS ?
Given back: false (0)

Asked: What about Oc1ccc(Cl)c2cccnc12 ?
Given back: false (0)

Asked: What about O=C=Nc1cccc(C(F)(F)F)c1 ?
Given back: false (0)

Asked: What about O=[N+]([O-])c1cc(C2CCCCC2)c(O)c([N+](=O)[O-])c1 ?
Given back: true (1)

###

Target: Vitamin D3 receptor (Homo sapiens)
Test: qHTS assay to identify small molecule antagonists of the vitamin D receptor (VDR) signaling pathway (AID 743223)
Conditions: VDR-UAS-bla HEK293T, beta-lactamase FRET ratio, 16 h; series mostly up to 61 µM
Description: U.S. Tox21 Program National Center for Advancing Translational Sciences [NCATS] NIH Chemical Genomics Center [NCGC] U.S. Environmental Protection Agency [EPA] National Institutes of Environmental Health Sciences [NIEHS] National Toxicology Program [NTP] U.S. Food and Drug Administration [FDA] Tox21 Assay Overview: The vitamin D receptor (VDR), a member of nuclear hormone receptor superfamily, plays a critical role in calcium homeostasis and bone metabolism. […]
Inconclusive results are not listed. Active and inactive are the calls of the source. Calls come from the whole dose curve; as a rule, active = well fitted inhibition curve with a large enough effect in the signal ratio in the repeat runs (not every such curve was filed as active); inconclusive = weak or mixed curves, or effect the other way; inactive = no such curve, though single readings can be large or run the other way; the % refers to the signal ratio.
Respond with a class label; see active, inactive

Take a look at these entries with their results.
INSERT INTO assay_data (molecule, assigned_class) VALUES
  ('O=C1c2ccccc2C(=O)C1c1nc2ccccc2c(Br)c1O', 'inactive'),
  ('C=Cc1ccc(S(=O)(=O)O)cc1', 'inactive'),
  ('CN1C(=O)N(c2ccccc2Br)Cc2cnc(Nc3ccc4c(c3)OCC(CO)O4)nc21 (configuration not stated)', 'active'),
  ('CC(=O)OCC(=O)NCCCOc1cccc(CN2CCCCC2)c1', 'inactive');

Asked: Kindly provide the recorded test outcome for the following molecule: CC(=O)OCC[N+](C)(C)C
Given back: inactive

Asked: What about O=C1C(=O)c2ccccc2C(O)=C1C1CCC(c2ccc(Cl)cc2)CC1 (configuration not stated) ?
Given back: inactive

Asked: What about CC1(CN2CCC(n3c(=O)[nH]c4ccccc43)CC2)OCc2ccccc2-n2cccc21 (configuration not stated) ?
Given back: inactive

Asked: What about COc1ccccc1Oc1c(NS(=O)(=O)c2ccc(C(C)(C)C)cc2)nc(-c2ncccn2)nc1OCCO ?
Given back: inactive
